testedTarget: CaCYP51 Y132F (Candida albicans, UniProt P10613, Y132F)
assayText: CYP51 reconstitution assay
conditions: mean ± SD, duplicate
valueKind: IC50 (nM)
Express your answer in nM, writing the number without its unit.

# example entries with known answers
                                   molecule  quantitativeresult
0        OC(Cn1cncn1)(Cn1cncn1)c1ccc(F)cc1F                 606
1  CCC(C)n1ncn(-c2ccc(N3CCN(c4ccc(OCC5COC(Cn6cncn6)(c6ccc(Cl)cc6Cl)O5)cc4)CC3)cc2)c1=O (stereo not drawn)                 309

Output IC50 of "CC[C@@H]([C@H](C)O)n1ncn(-c2ccc(N3CCN(c4ccc(OC[C@@H]5CO[C@@](Cn6cncn6)(c6ccc(F)cc6F)C5)cc4)CC3)cc2)c1=O" 343

---

Measured remaining activity at 4 µM, listed per entry for reference.
testedTarget: CaCYP51 Q474K (Candida albicans, UniProt P10613, Q474K)
Construct: made in house; host or cells: E. coli DH5α (pCWori+)
assayText: CYP51 reconstitution assay
Assay type: biochemical
conditions: 0.25 h, 4 μM triazole, % of activity without triazole, read-out: Residual CYP51 activity (%) ± SD
Method: Azole antifungal agents were added in 2.5 μl dimethyl sulfoxide, followed by 10 min of incubation at 37°C prior to assay initiation with 4 mM β-NADPH-Na4. The samples were then shaken for 15 min at 37°C. […]
// units = %; emit number, no label

Examples with answers:
molecule	testedTarget	unitAnnotation	remaining activity at 4 µM
CC[C@@H]([C@H](C)O)n1ncn(-c2ccc(N3CCN(c4ccc(OC[C@@H]5CO[C@@](Cn6cncn6)(c6ccc(F)cc6F)C5)cc4)CC3)cc2)c1=O [Posaconazole, posaconazole]	CaCYP51 Q474K (Candida albicans, UniProt P10613, Q474K)	%	3.23
C[C@@H](c1ncncc1F)[C@](O)(Cn1cncn1)c1ccc(F)cc1F [Voriconazole, voriconazole]	CaCYP51 Q474K (Candida albicans, UniProt P10613, Q474K)	%	0.34

Determine its reported remaining activity at 4 µM: OC(Cn1cncn1)(Cn1cncn1)c1ccc(F)cc1F [Fluconazole, fluconazole] 0.71

Indicate its recorded remaining activity at 4 µM; the molecule in question is CCC(C)n1ncn(-c2ccc(N3CCN(c4ccc(OCC5COC(Cn6cncn6)(c6ccc(Cl)cc6Cl)O5)cc4)CC3)cc2)c1=O (stereo not shown) [Itraconazole, itraconazole] 0.49

---

This section presents compounds with their documented remaining activity at 4 µM values.
testedTarget: CaCYP51 G307S (Candida albicans, UniProt P10613, G307S)
Construct: made in house; host or cells: E. coli DH5α (pCWori+)
Sequence (P10613 whole entry, looked up, stated change not applied): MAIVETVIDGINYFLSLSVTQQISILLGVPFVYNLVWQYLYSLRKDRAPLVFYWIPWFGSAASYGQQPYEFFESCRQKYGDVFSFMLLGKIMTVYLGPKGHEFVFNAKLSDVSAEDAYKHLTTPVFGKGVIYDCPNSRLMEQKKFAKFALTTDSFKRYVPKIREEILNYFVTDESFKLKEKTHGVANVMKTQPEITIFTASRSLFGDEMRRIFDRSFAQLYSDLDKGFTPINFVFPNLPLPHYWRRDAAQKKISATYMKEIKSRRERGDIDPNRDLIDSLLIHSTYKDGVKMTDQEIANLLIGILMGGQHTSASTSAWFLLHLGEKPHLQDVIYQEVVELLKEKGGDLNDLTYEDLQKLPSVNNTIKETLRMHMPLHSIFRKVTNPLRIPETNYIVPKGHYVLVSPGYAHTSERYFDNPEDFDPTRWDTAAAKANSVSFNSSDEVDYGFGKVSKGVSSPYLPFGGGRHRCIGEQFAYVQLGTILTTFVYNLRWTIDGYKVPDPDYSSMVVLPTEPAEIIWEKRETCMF
assayText: CYP51 reconstitution assay
Type: biochemical
conditions: 0.25 h, 4 μM triazole, % of activity without triazole, read-out: Residual CYP51 activity (%) ± SD
Unit % implied. Number only.

Example entries begin here.
In [3]: df
Out[3]:
                                   compound                              testedtarget  quantitativeresult
0  C[C@@H](c1ncncc1F)[C@](O)(Cn1cncn1)c1ccc(F)cc1F  CaCYP51 G307S (Candida albicans, UniProt P10613, G307S)                0.41
1  CCC(C)n1ncn(-c2ccc(N3CCN(c4ccc(OCC5COC(Cn6cncn6)(c6ccc(Cl)cc6Cl)O5)cc4)CC3)cc2)c1=O (stereo not shown)  CaCYP51 G307S (Candida albicans, UniProt P10613, G307S)                0.53
2  CC[C@@H]([C@H](C)O)n1ncn(-c2ccc(N3CCN(c4ccc(OC[C@@H]5CO[C@@](Cn6cncn6)(c6ccc(F)cc6F)C5)cc4)CC3)cc2)c1=O  CaCYP51 G307S (Candida albicans, UniProt P10613, G307S)                0.71

// fetch remaining activity at 4 µM given entry "OC(Cn1cncn1)(Cn1cncn1)c1ccc(F)cc1F" 0.95
